system: cryo-preserved hepatocytes; test: Hepatocyte stability assay, mouse cryopreserved hepatocytes; format: in vitro ADME; settings: Mouse hepatocytes, 10 μM, 60 min; class symbols

compound smiles	Clint
C=C(Cc1nc(Cc2ccc(OC(F)(F)F)cc2)no1)C(=O)OCC(=O)O	++ (++ means 95-350)
C=C(Cc1nc(C2(c3ccc(Br)cc3)CC2)no1)C(=O)OCC(=O)O	++ (++ means 95-350)
C=C(Cc1nc(CCCCCCCC)no1)C(=O)O[C@@H](CC(=O)O)C(F)(F)F	+ (+ means ≥351)
C=C(Cc1nc(Cc2ccc(CCCC)cc2)no1)C(=O)OCC(=O)O	+ (+ means ≥351)
C=C(Cc1nc(C2(c3ccc(OC(F)(F)F)cc3)CC2)no1)C(=O)OCC(=O)O	++ (++ means 95-350)
